- target_or_system: DNA topoisomerase 2-alpha (Homo sapiens) (UniProt P11388)
- Sequence (P11388 whole entry): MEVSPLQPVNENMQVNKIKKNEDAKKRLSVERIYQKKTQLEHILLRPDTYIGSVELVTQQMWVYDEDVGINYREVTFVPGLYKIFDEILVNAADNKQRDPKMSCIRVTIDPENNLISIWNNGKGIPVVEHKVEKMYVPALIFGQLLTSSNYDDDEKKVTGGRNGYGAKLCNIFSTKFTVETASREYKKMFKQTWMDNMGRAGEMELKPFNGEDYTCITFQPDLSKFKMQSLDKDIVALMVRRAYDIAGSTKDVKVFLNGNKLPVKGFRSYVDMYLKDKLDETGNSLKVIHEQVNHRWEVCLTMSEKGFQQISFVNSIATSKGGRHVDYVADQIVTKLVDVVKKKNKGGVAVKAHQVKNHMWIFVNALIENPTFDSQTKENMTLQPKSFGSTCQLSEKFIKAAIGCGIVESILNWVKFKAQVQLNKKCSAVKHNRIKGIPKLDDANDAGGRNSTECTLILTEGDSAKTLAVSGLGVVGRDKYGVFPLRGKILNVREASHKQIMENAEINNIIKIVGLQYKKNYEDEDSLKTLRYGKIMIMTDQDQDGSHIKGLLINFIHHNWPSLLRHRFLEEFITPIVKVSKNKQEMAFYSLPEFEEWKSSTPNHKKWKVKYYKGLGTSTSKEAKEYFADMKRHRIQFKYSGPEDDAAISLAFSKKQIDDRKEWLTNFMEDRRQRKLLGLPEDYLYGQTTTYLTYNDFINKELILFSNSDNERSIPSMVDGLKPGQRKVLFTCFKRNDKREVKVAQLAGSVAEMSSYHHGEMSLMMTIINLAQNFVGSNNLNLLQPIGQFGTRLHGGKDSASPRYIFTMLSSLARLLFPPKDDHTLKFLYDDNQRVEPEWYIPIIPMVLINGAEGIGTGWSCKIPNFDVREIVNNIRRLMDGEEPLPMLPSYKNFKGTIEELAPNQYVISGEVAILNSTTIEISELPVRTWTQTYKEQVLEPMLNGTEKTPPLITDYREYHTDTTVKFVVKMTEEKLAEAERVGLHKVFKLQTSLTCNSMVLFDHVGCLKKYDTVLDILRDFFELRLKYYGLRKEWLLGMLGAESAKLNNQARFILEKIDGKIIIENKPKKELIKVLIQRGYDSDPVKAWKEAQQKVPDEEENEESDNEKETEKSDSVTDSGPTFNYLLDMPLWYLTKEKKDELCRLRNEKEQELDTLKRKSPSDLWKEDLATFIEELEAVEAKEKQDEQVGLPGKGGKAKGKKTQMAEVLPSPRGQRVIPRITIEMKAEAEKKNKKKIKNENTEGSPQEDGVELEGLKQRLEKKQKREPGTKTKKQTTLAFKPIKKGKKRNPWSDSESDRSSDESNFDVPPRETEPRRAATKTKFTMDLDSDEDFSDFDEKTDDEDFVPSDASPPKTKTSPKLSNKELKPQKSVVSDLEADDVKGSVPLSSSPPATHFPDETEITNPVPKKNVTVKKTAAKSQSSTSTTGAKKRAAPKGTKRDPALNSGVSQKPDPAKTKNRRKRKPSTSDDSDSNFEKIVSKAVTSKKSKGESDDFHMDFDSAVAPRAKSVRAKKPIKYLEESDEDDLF
- experiment_description: Inhibition of human Topo 2-mediated relaxation of supercoiled pBR322 plasmid at 25 to 50 uM after 30 mins by agarose gel electrophoresis
Calls of active or inactive are those of the source. The calls are words filed in the database; no cut-off is given here.
Mark one answer only. Choices: Yes (active), No (inactive)

Reference set (5 entries):
chemical_string | target_or_system | group
CCCn1c2cc(=O)c3ccccc3c-2nc2ccccc21 | DNA topoisomerase 2-alpha (Homo sapiens) (UniProt P11388) | No
CN(C)CCn1c2cc(=O)c3ccccc3c-2nc2ccccc21 | DNA topoisomerase 2-alpha (Homo sapiens) (UniProt P11388) | Yes
CN(C)CCCn1c2cc(=O)c3ccccc3c-2nc2ccccc21 | DNA topoisomerase 2-alpha (Homo sapiens) (UniProt P11388) | Yes
O=c1cc2n(CCCN3CCCCC3)c3ccccc3nc-2c2ccccc12 | DNA topoisomerase 2-alpha (Homo sapiens) (UniProt P11388) | Yes
O=c1cc2n(CCN3CCCCC3)c3ccccc3nc-2c2ccccc12 | DNA topoisomerase 2-alpha (Homo sapiens) (UniProt P11388) | Yes

Note: attention shifts to another entry.
Query string: # lookup: test call for CN(C)CCCCn1c2cc(=O)c3ccccc3c-2nc2ccccc21
Result string: Yes
